Tested on: PCSK9 mRNA
Experiment: PCSK9 siRNA screening in HepG2 cells (lipofectamine 2000 transfection, PCSK9 mRNA by Quantigene, normalized to GAP-DH)
Format: cell-based, human
Settings: 30 nM siRNA
In the oligonucleotide strings, read from the 5' end, every base follows the letter of its sugar. An asterisk marks phosphorothioate; unmarked linkages are phosphodiester. Other units and linkages are bracketed, terminal groups are in braces. A string of capitals states the bases alone. d = 2'-deoxy (DNA); m = 2'-O-methyl; r = 2'-OH (RNA)
Listed substances paired with reported Mean percent remaining mRNA transcript at siRNA concentration/in cell type 30 nM/HepG2
Please state the figure in %; there is no need to write the unit.

Known Mean percent remaining mRNA transcript at siRNA concentration/in cell type 30 nM/HepG2 results, listed for orientation:
substance	number
AD-9569: PCSK9 siRNA (sense rArGrCrUrCrCrUrGrCrArCrArGrUrCrCrUrCrCdT*dT; antisense rGrGrArGrGrArCrUrGrUrGrCrArGrGrArGrCrUdT*dT)	112
AD-9519: PCSK9 siRNA (sense rCrCrCrArGrCrCrArGrGrArUrUrCrCrGrCrGrCdT*dT; antisense rGrCrGrCrGrGrArArUrCrCrUrGrGrCrUrGrGrGdT*dT)	78
AD-9532: PCSK9 siRNA (sense rCrCrGrGrGrCrCrCrArCrArArCrGrCrUrUrUrUdT*dT; antisense rArArArArGrCrGrUrUrGrUrGrGrGrCrCrCrGrGdT*dT)	100
AD-9574: PCSK9 siRNA (sense rCrUrGrCrCrArArGrGrGrArArGrGrGrCrArCrGdT*dT; antisense rCrGrUrGrCrCrCrUrUrCrCrCrUrUrGrGrCrArGdT*dT)	74
AD-9702: PCSK9 siRNA (sense rGmCrArGrArGrAmCmUrGrAmUmCmCrAmCmUmUmCdT*dT; antisense rGrArArGrUrGrGrArUmCrArGrUrCrUrCrUrGrCdT*dT)	79
AD-9704: PCSK9 siRNA (sense mCrAmUmUmUrAmUmCmUmUmUmUrGrGrGmUmCmUrGdT*dT; antisense mCrArGrArCrCmCrArArArArGrAmUrArArArUrGdT*dT)	111
AD-9755: PCSK9 siRNA (sense mUmCmUrGrGrGmUmUmUmUrGmUrArGmCrAmUmUmUdT*dT; antisense rArArArUrGrCmUrAmCrArArArArCrCmCrArGrAdT*dT)	28
AD-9678: PCSK9 siRNA (sense rArGrGrArGmCrAmUrGrGrArAmUmCmCmCrGrGmCdT*dT; antisense rGrCrCrGrGrGrArUrUrCmCrArUrGrCrUrCrCrUdT*dT)	76

Report Mean percent remaining mRNA transcript at siRNA concentration/in cell type 30 nM/HepG2, nothing else, for this substance: AD-9536: PCSK9 siRNA (sense rUrUrArUrUrCrGrGrArArArArGrCrCrArGrCrUdT*dT; antisense rArGrCrUrGrGrCrUrUrUrUrCrCrGrArArUrArAdT*dT)
157

Please list Mean percent remaining mRNA transcript at siRNA concentration/in cell type 30 nM/HepG2 recorded for the substance AD-9711: PCSK9 siRNA (sense mCrGrGmCrArAmCmUmUmCmCrGrGrGrAmCrGrAmUdT*dT; antisense rArUrCrGrUrCrCrCrGrGrArArGrUrUrGrCrCrGdT*dT)
122

Supply reported Mean percent remaining mRNA transcript at siRNA concentration/in cell type 30 nM/HepG2 belonging to this substance: AD-9598: PCSK9 siRNA (sense rCrCrUrGrGrUrGrGrArGrGrUrGrUrArUrCrUrCdT*dT; antisense rGrArGrArUrArCrArCrCrUrCrCrArCrCrArGrGdT*dT)
83

Note down Mean percent remaining mRNA transcript at siRNA concentration/in cell type 30 nM/HepG2 recorded for AD-9744: PCSK9 siRNA (sense rGrArGmCrAmUrGrGrArAmUmCmCmCrGrGmCmCmCdT*dT; antisense rGrGrGrCrCrGrGrGrArUrUrCmCrArUrGrCrUrCdT*dT)
91

Specify measured Mean percent remaining mRNA transcript at siRNA concentration/in cell type 30 nM/HepG2 for AD-9552: PCSK9 siRNA (sense rArGrGrArGrCrArUrGrGrArArUrCrCrCrGrGrCdT*dT; antisense rGrCrCrGrGrGrArUrUrCrCrArUrGrCrUrCrCrUdT*dT) .
80

Identify measured Mean percent remaining mRNA transcript at siRNA concentration/in cell type 30 nM/HepG2 associated with AD-9541: PCSK9 siRNA (sense rGrGrUrGrArGrGrGrUrGrUrCrUrArCrGrCrCrAdT*dT; antisense rUrGrGrCrGrUrArGrArCrArCrCrCrUrCrArCrCdT*dT)
43

Answer with the recorded Mean percent remaining mRNA transcript at siRNA concentration/in cell type 30 nM/HepG2 for the substance listed here: AD-9649: PCSK9 siRNA (sense mCrArGmCmCrArGrGrAmUmUmCmCrGmCrGmCrGmCdT*dT; antisense rGrCrGrCrGrCrGrGrArArUrCrCrUrGrGrCrUrGdT*dT)
60

Give Mean percent remaining mRNA transcript at siRNA concentration/in cell type 30 nM/HepG2 for the following substance: AD-9575: PCSK9 siRNA (sense rCrCrGrCrUrGrCrCrGrGrCrArArCrUrUrCrCrGdT*dT; antisense rCrGrGrArArGrUrUrGrCrCrGrGrCrArGrCrGrGdT*dT)
120
